- targetSystem: Human immunodeficiency virus type 1 protease (Human immunodeficiency virus 1, UniProt Q72874)
testReadout: IC50 (µM)
Answers are plain numbers, in µM.

> print(dat)
                             compoundstring  testreadout  assayvalue
1  COc1ccc(CC(=O)N[C@@H](Cc2ccccc2)[C@H](O)CN(CC(C)C)S(=O)(=O)c2ccc(SC)cc2)cc1O         IC50     0.00928
2  COc1cccc(CC(=O)N[C@@H](Cc2ccccc2)[C@H](O)CN(CC(C)C)S(=O)(=O)c2ccc(OC)nc2)c1         IC50      0.0125
3  COc1ccc(S(=O)(=O)N(CC(C)C)C[C@@H](O)[C@H](Cc2ccccc2)NC(=O)Cc2ccc(O)c(OC)c2)cn1         IC50        0.17
4  COc1ccc(S(=O)(=O)N(CC(C)C)C[C@@H](O)[C@H](Cc2ccccc2)NC(=O)Cc2ccc(OC)c(OC)c2)cn1         IC50       0.176
5  COc1ccc(S(=O)(=O)N(CC(C)C)C[C@@H](O)[C@H](Cc2ccccc2)NC(=O)Cc2ccc(O)c(O)c2)cc1         IC50     0.00054

Parameter requested: IC50. Apply to each item below.
1. CSc1ccc(S(=O)(=O)N(CC(C)C)C[C@@H](O)[C@H](Cc2ccccc2)NC(=O)Cc2ccc(O)cc2)cc1
2. COc1ccc(CC(=O)N[C@@H](Cc2ccccc2)[C@H](O)CN(CC(C)C)S(=O)(=O)c2ccc(SC)cc2)cc1
3. COc1ccc(S(=O)(=O)N(CC(C)C)C[C@@H](O)[C@H](Cc2ccccc2)NC(=O)Cc2ccc(OC)c(O)c2)cn1
4. CSc1ccc(S(=O)(=O)N(CC(C)C)C[C@@H](O)[C@H](Cc2ccccc2)NC(=O)Cc2ccc(O)c(O)c2)cc1
5. COc1ccc(CC(=O)N[C@@H](Cc2ccccc2)[C@H](O)CN(CC(C)C)S(=O)(=O)c2ccc(N)cc2)cc1OC
6. COc1ccc(S(=O)(=O)N(CC(C)C)C[C@@H](O)[C@H](Cc2ccccc2)NC(=O)Cc2ccc(O)cc2)cn1
7. COc1ccc(CC(=O)N[C@@H](Cc2ccccc2)[C@H](O)CN(CC(C)C)S(=O)(=O)c2ccc(N)cc2)cc1O
8. COc1ccc(CC(=O)N[C@@H](Cc2ccccc2)[C@H](O)CN(CC(C)C)S(=O)(=O)c2ccc(OC)nc2)cc1

## Result
[0.0042, 0.0858, 0.013, 0.00229, 1.02, 0.00726, 0.0275, 0.0518]

Parameter requested: IC50. Apply to each item below.
1. COc1ccc(S(=O)(=O)N(CC(C)C)C[C@@H](O)[C@H](Cc2ccccc2)NC(=O)Cc2ccc(OC)c(OC)c2)cc1
2. COc1ccc(CC(=O)N[C@@H](Cc2ccccc2)[C@H](O)CN(CC(C)C)S(=O)(=O)c2ccc(OC)cc2)cc1

## Result
[0.085, 0.021]
